# experiment: Metabolic stability assay, dog liver microsomes
# condition.label: Beagle, dog, liver microsomes, pH 7.4
metric.name: CLint scaled at 1 µM (mL/min/kg)
Express your answer in mL/min/kg, writing the number without its unit.

# CLint scaled at 1 µM lookup, item "Cc1nnn(C)c1-c1cnc2c3c4cnn(C)c4ccc3n([C@H](c3ccccc3)C3CCOCC3)c2c1"
95.9

====

# experiment: MTS assay of non-cancerous cells
# Format: cell-based, human
# condition.label: human, HaCAT cells (immortalized human keratinocytes), 24h; 8 nM; read-out: Cell viability (Sup Fig.4a)
metric.name: viability at 24 h, 0.008 µM (%)
Express your answer in %, writing the number without its unit.

# viability at 24 h, 0.008 µM lookup, item "Cc1nnn(C)c1-c1cnc2c3c4cnn(C)c4ccc3n([C@H](c3ccccc3)C3CCOCC3)c2c1"
92.2
